Entry source: ChEMBL document CHEMBL4190168

- Tested on: EA.hy 926
- assay-protocol: Antiproliferative activity against human EAhy926 cells after 48 hrs by MTT assay
- Format: functional, cell-based
- experimental-parameters: EA.hy 926, 48 h
Below, each of the compounds is paired with its reported IC50 value.

**Query** Reported IC50, compound O=Cc1cc2c3ccccc3n(Cc3ccccc3)c2c(-c2ccc(Cl)cc2)n1 : ____
**Result** > 100 µM

**Query** Reported IC50, compound CCCCCCn1c2ccccc2c2cc(C=O)nc(-c3ccc(OC)cc3)c21 : ____
**Result** > 100 µM

**Query** Reported IC50, compound CC(C)c1nc(C=O)cc2c3ccccc3n(Cc3ccccc3)c12 : ____
**Result** > 100 µM

**Query** Reported IC50, compound CCCCn1c2ccccc2c2cc(C=O)nc(C(C)C)c21 : ____
**Result** > 100 µM

**Query** Reported IC50, compound Cc1nc(C=O)cc2c3ccccc3n(CCCc3ccccc3)c12 : ____
**Result** > 100 µM

**Query** Reported IC50, compound COc1ccc(-c2nc(C=O)cc3c4ccccc4n(C)c23)cc1 : ____
**Result** > 100 µM

**Query** Reported IC50, compound COc1ccc(-c2nc(C=O)cc3c4ccccc4n(-c4ccccc4)c23)cc1 : ____
**Result** > 100 µM

**Query** Reported IC50, compound O=Cc1cc2c3ccccc3n(Cc3ccccc3)c2c(-c2ccccc2)n1 : ____
**Result** > 100 µM

**Query** Reported IC50, compound COc1ccc(-c2nc(C=O)cc3c2[nH]c2ccccc23)cc1 : ____
**Result** > 100 µM

**Query** Reported IC50, compound CCCCn1c2ccccc2c2cc(C=O)nc(C)c21 : ____
**Result** > 100 µM

**Query** Reported IC50, compound Cc1nc(CNCCCNCc2cc3c4ccccc4n(Cc4cccc(Cl)c4)c3c(C)n2)cc2c3ccccc3n(Cc3cccc(Cl)c3)c12 : ____
**Result** 11.1 µM

* * *

Below, each of the compounds is paired with its reported IC50 value.
- Tested on: EA.hy 926
- assay-protocol: Antiproliferative activity against human EAhy926 cells after 48 hrs by MTT assay
- Format: functional, cell-based
- experimental-parameters: EA.hy 926, 48 h

Example cases with answers are listed next.
>>> print(df.to_string())
                               given_smiles  readout_type  test_result
0  CCCCn1c2ccccc2c2cc(C=O)nc(-c3ccc(Cl)cc3)c21          IC50     > 100 µM
1      Cn1c2ccccc2c2cc(C=O)nc(-c3ccccc3)c21          IC50     > 100 µM

From here, focus on the item given below.
**Query** Reported IC50, compound CC(C)c1nc(CNCCCCCNCc2cc3c([nH]c4ccccc43)c(C(C)C)n2)cc2c1[nH]c1ccccc12 : ____
**Result** > 20 µM

* * *

- System: EA.hy 926
- assay-protocol: Antiproliferative activity against human EAhy926 cells after 48 hrs by MTT assay
- Format: functional, cell-based
- experimental-parameters: EA.hy 926, 48 h
Below, each of the compounds is paired with its reported pIC50 value.
FYI, pIC50 means -log10 of a concentration in mol per litre.

**Query** Reported pIC50, compound CCCCn1c2ccccc2c2cc(CNCCCCNCc3cc4c5ccccc5n(CCCC)c4c(C(C)C)n3)nc(C(C)C)c21 : ____
**Result** 5.62

**Query** Reported pIC50, compound Cc1nc(CNCCCCNCc2cc3c4ccccc4n(CC(C)C)c3c(C)n2)cc2c3ccccc3n(CC(C)C)c12 : ____
**Result** 5.59

**Query** Reported pIC50, compound CCCCn1c2ccccc2c2cc(CNCCCCNCc3cc4c5ccccc5n(CCCC)c4c(C)n3)nc(C)c21 : ____
**Result** 5.77

**Query** Reported pIC50, compound Cc1nc(CNCCCNCc2cc3c4ccccc4n(CCCc4ccccc4)c3c(C)n2)cc2c3ccccc3n(CCCc3ccccc3)c12 : ____
**Result** 5.01

**Query** Reported pIC50, compound COc1cc(-c2nc(CNCCCCCCNCc3cc4c5ccccc5n(CCCc5ccccc5)c4c(-c4cc(OC)c(OC)c(OC)c4)n3)cc3c4ccccc4n(CCCc4ccccc4)c23)cc(OC)c1OC : ____
**Result** 5.77

**Query** Reported pIC50, compound COc1ccc(-c2nc(CNCCCCCNCc3cc4c5ccccc5n(Cc5ccccc5)c4c(-c4ccc(OC)cc4)n3)cc3c4ccccc4n(Cc4ccccc4)c23)cc1 : ____
**Result** 5.41

* * *

Below, each of the molecules is paired with its reported IC50 value.
- System: EA.hy 926
- assay-protocol: Antiproliferative activity against human EAhy926 cells after 48 hrs by MTT assay
- Type: functional, cell-based
- experimental-parameters: EA.hy 926, 48 h

Example cases with answers are listed next.
>>> print(df.to_string())
                               given_smiles  test_result
0      Cc1nc(C=O)cc2c3ccccc3n(Cc3ccccc3)c12     > 100 µM
1  c1ccc(Cn2c3ccccc3c3cc(CNCCCNCc4cc5c6ccccc6n(Cc6ccccc6)c5c(-c5ccccc5)n4)nc(-c4ccccc4)c32)cc1      > 20 µM
2          CC(C)c1nc(C=O)cc2c1[nH]c1ccccc12     > 100 µM
3  CCn1c2ccccc2c2cc(C=O)nc(-c3cc(OC)c(OC)c(OC)c3)c21     > 100 µM
4  CCCCn1c2ccccc2c2cc(CNCCCNCc3cc4c5ccccc5n(CCCC)c4c(-c4ccc(Cl)cc4)n3)nc(-c3ccc(Cl)cc3)c21      > 20 µM

From here, focus on the item given below.
**Query** Reported IC50, molecule Cc1nc(C=O)cc2c3ccccc3n(C(C)C)c12 : ____
**Result** > 100 µM
